Assay System: MFE-2 (598–736) (Homo sapiens, UniProt P51659)
Construct: For MFE-2 (598–736) DNA was amplified; made in house; host or cells: E. coli Rosetta 2 (DE3) pLysS
Sequence (P51659 598-736): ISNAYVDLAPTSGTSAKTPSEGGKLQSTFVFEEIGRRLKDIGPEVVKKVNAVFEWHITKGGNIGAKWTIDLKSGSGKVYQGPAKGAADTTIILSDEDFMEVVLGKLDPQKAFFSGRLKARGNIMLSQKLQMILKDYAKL
Method Notes: SPR analysis, immobilized His-tagged MFE-2 (598-736)
Assay type: binding
Test Settings: Biacore 3000, CM5 chip, 25 °C, read-out: dissociation constant (KD) for MFE-2
Metric Name: Kd (µM)

Chem Smiles: CCCCCCCCCCCCCCCCCC(=O)OCCCO[C@H]1O[C@H](CS(=O)(=O)O)[C@@H](O)[C@H](O)[C@H]1O
Metric Name: Kd
Unit Of Measure: µM
Measurement: 14.2
